The reader will find reported max response, negative = inhibition values listed item by item below.
Target: Serine/threonine-protein kinase PLK1 (Homo sapiens)
Test: qHTS for Inhibitors of PLK1-PDB (polo-like kinase 1 - polo-box domain): Primary Screen; note: series mostly up to about 57 µM; % is set by controls: 0 for no effect and ±100 for the full control effect; nearly all actives have a fitted effect of over 65% in size
Conditions: Plk1 PBD binding of FITC phosphopeptide, fluorescence polarization
Source text: The polo-like kinase 1 (Plk1) is a member of a conserved subfamily of serine / threonine protein kinases that plays a pivotal roles in cell proliferation. It has a C-terminal non-catalytic region called the polo-box domain (PBD) that plays a crucial role in the subcellular localization of the Plk1. […] This project employed a fluorescence polarization (FP) assay using a FITC-conjugated phospho-9-mer (p-9-mer) peptide and purified human Plk1 PBD protein. […]
In all, about 360,000 compounds went through this assay and about 10,000 (2.8%) were called active. Inconclusive results (about 4%) are left out. Only a selection was taken, and actives are over-represented in it overall.
All answers are understood in %, so give the number only.

[
  {
    "Compound": "O=C(c1ccc(C(F)(F)F)cc1)C1CCCN(C(=O)c2csnn2)C1 (stereo unspecified)",
    "Target entity": "Serine/threonine-protein kinase PLK1 (Homo sapiens)",
    "U": "%",
    "max response, negative = inhibition": 2.18
  },
  {
    "Compound": "COc1cccc(NC(=O)Nc2ccc(F)cc2)c1",
    "Target entity": "Serine/threonine-protein kinase PLK1 (Homo sapiens)",
    "U": "%",
    "max response, negative = inhibition": -6.36
  },
  {
    "Compound": "O=C(CSC1=NCCS1)Nc1nc(-c2ccccc2)cs1",
    "Target entity": "Serine/threonine-protein kinase PLK1 (Homo sapiens)",
    "U": "%",
    "max response, negative = inhibition": -11.4
  },
  {
    "Compound": "CC(C)CNC(=O)C1(C)CCCN1C(=O)CSc1ccccc1 (stereo unspecified)",
    "Target entity": "Serine/threonine-protein kinase PLK1 (Homo sapiens)",
    "U": "%",
    "max response, negative = inhibition": -9.29
  },
  {
    "Compound": "COc1ccc(NC(=O)Cn2c(-c3ccc(OC)cc3)cn(-c3ccc(C)cc3)c2=O)cc1",
    "Target entity": "Serine/threonine-protein kinase PLK1 (Homo sapiens)",
    "U": "%",
    "max response, negative = inhibition": -2.89
  },
  {
    "Compound": "CCCCN1CC(C)(C)[C@H](CC(=O)Nc2ccc(Br)cc2)C1=O",
    "Target entity": "Serine/threonine-protein kinase PLK1 (Homo sapiens)",
    "U": "%",
    "max response, negative = inhibition": 2.01
  }
]

Which max response, negative = inhibition is reported with Serine/threonine-protein kinase PLK1 (Homo sapiens) for this entry: "CN(C)CCN1CCN(c2cc(-c3cccc(Cl)c3)nc3ccnn23)CC1" ? -12.4

Could you do the same for "Cc1c(NC(=O)c2coc(=O)c(Br)c2)c(=O)n(-c2ccccc2)n1C" , please? -12.4

Could you do the same for "COc1cc(CCN=Cc2ccccc2O)c([N+](=O)[O-])cc1OC" , please? -15.3

Could you do the same for Cc1cnc(C(=O)N2CCCC(C(=O)c3ccc(C(F)(F)F)cc3)C2)cn1 (stereo unspecified) , please? 6.24

Could you do the same for O=C(CN1C(=O)C2C3C=CC(C3)C2C1=O)Nc1nc(-c2ccccn2)cs1 (stereo unspecified) , please? -7.14
